# Test system: BDF1 mice, P388 leukemia ip, median survival T/C
# PROTOCOL SUMMARY: NCI In Vivo Anticancer Drug Screen. Data for tumor model P388 Leukemia (intraperitoneal) in B6D2F1 (BDF1) mice
# RECORDED CONDITIONS: endpoint: median survival time; dose: 200.0 mg/kg/injection; schedule: Q04DX002 (ip); vehicle: saline with Tween-80; higher = longer survival
Toxic doses and inconclusive results are not listed.
# T/C listing for each entry below

Previously resolved entries follow.
COC(=O)C1OC(C)(C)OC1C(=O)OC (stereo not given): 97 % of control
CSC1(CC(=O)N2CCCCC2)C(=O)Nc2ccccc21 (stereo not given): 95 % of control
CCOC(=O)c1ccc(NC(C)=O)c(CSC)c1: 99 % of control
O=C1Cc2ccc3c(c2O1)C(=O)c1ccccc1C3=O: 100 % of control

Consider the record given below.
Asked: # get_value(readout= T/C, system= BDF1 mice, P388 leukemia ip, median survival T/C) for Cc1noc2nc[nH]c(=O)c12
Given back: 106 % of control

* * *

# Test system: BDF1 mice, P388 leukemia ip, median survival T/C
# PROTOCOL SUMMARY: NCI In Vivo Anticancer Drug Screen. Data for tumor model P388 Leukemia (intraperitoneal) in B6D2F1 (BDF1) mice
# RECORDED CONDITIONS: endpoint: median survival time; dose: 12.5 mg/kg/injection; schedule: Q01DX009 (ip); vehicle: saline
Toxic doses and inconclusive results are not listed. The calls were made as follows: active = survival T/C of 150% or more; inactive = T/C below 125% in these data.
Your response should consist of one outcome taken from active, inactive

Solved cases below.
O=C1C=CC(=O)N1CN1CCOCC1: inactive
OCCN1CCN(CCCN2c3ccccc3Sc3cccnc32)CC1: inactive
CC1(C)N=C(N)N=C(N)N1c1ccc(OCCCOc2ccc(S(=O)(=O)F)cc2)c(Cl)c1: active
CCN(CC)CCn1c(=O)c2ccccc2c2ccccc21: inactive
CC(=O)c1ccc[n+](Cc2c(Cl)cccc2Cl)c1: inactive

Asked: Called result for COc1ccc2c(c1)N(C)CCCC2=O
Given back: inactive

Asked: For this compound, state the assay outcome: CCCCCCCCC[N+]12CC[N+](CCCCCCCCC)(CC1)CC2
Given back: inactive

Asked: # outcome recorded in this test, key = CCS/C(N)=N\N
Given back: inactive

Asked: Would you mind telling me which call this test gave CN(C)c1ccc2nc3ccc(=[N+](C)C)cc-3sc2c1 ?
Given back: inactive

Asked: Please share the test call associated with COc1ccc2[nH]c(=O)c(C)c(C)c2c1 .
Given back: inactive

Asked: Would you mind telling me which call this test gave CCOc1ccn(CC(=O)Nc2nccs2)c(=O)n1 ?
Given back: inactive

Asked: Please state the recorded outcome for this compound: Cc1[nH]c(=O)[nH]c(=O)c1/C=C/C(=O)NC(CO)CC(C)C (centres undefined)
Given back: inactive

Asked: Write down the call the test reported for this compound. Item: O=C(O)C(=O)O.O=C([O-])C(=O)O.O=C([O-])C(=O)O.O=C([O-])C(=O)[O-].[K+].[U]
Given back: inactive

Asked: Can you look up the reported call for CC1(C)N=C(N)N=C(N)N1c1ccccc1 for me?
Given back: inactive

* * *

# Tested on: BDF1 mice, P388 leukemia ip, median survival T/C
# PROTOCOL SUMMARY: NCI In Vivo Anticancer Drug Screen. Data for tumor model P388 Leukemia (intraperitoneal) in B6D2F1 (BDF1) mice
# RECORDED CONDITIONS: endpoint: median survival time; dose: 50.0 mg/kg/injection; schedule: Q01DX009 (ip); vehicle: saline with Tween-80; higher = longer survival
Inconclusive results and toxic doses are left out.
METRIC NAME: T/C

CN1C(=O)C(C2Sc3ccccc3NC2=O)SC1=S (stereo not given): 102 % of control
O=COC1CC2CC1C1CCCC21 (stereo not given): 122 % of control
OC/C=[CH]\[Sn]([c]1ccccc1)([c]1ccccc1)[c]1ccccc1: 89 % of control
O=C(O)c1ccc([N+](=O)[O-])s1: 90 % of control
Nc1cc(Nc2cccc(Cl)c2)nc(N)n1: 86 % of control
CCCCCCC(=O)/C=C/c1cc(OC)ccc1OC: 104 % of control

Asked: Requested read-out: T/C. Entry: COCCn1c2nc(=O)n(-c3ccccc3)c(=O)c-2nc2ccccc21
Given back: 91 % of control

Asked: Look at this compound and give its reported T/C. CCOC(=O)c1cc(C=O)c[nH]1
Given back: 93 % of control

Asked: What does the record list as T/C for COCCn1c2c(nc(C(=O)OC)/c1=N\C(=O)Nc1ccccc1)CCCC2 ?
Given back: 109 % of control

Asked: // lookup T/C for NNC(=O)CCc1ccccc1Br
Given back: 100 % of control

Asked: Fill in: T/C of Cc1cc(O)c(NCCCN(C)C)c2c(=O)c3ccccc3sc12 is ___
Given back: 108 % of control

Asked: Sample Nc1ncncc1-c1cccc2ccccc12 — what was its T/C?
Given back: 108 % of control

Asked: # get_value(readout='T/C', item= CC1=C(Cc2ccccc2)C(C)(C)CCC1 )
Given back: 103 % of control

* * *

List of T/C values.
# Test system: BDF1 mice, P388 leukemia ip, median survival T/C
# PROTOCOL SUMMARY: NCI In Vivo Anticancer Drug Screen. Data for tumor model P388 Leukemia (intraperitoneal) in B6D2F1 (BDF1) mice
# RECORDED CONDITIONS: endpoint: median survival time; dose: 200.0 mg/kg/injection; schedule: Q01DX001 (ip); vehicle: saline; higher = longer survival
Toxic doses and inconclusive results are not listed.

Use the examples below as a reference point.
Cc1ccc(N2C(=O)CC(Sc3ccccc3N)C2=O)cc1 (stereo not drawn): 90 % of control
CC1(C2CC2)NC(=O)NC1=O (stereo not drawn): 104 % of control
Cc1ccc(S(=O)(=O)Oc2cc([N+](=O)[O-])ccc2N)cc1: 100 % of control
O=S1(=O)CC(S(=O)(=O)O)C(S(=O)(=O)O)C1 (stereo not drawn): 100 % of control
CCCB(O)O: 113 % of control
CN1C(=O)NC2C(CO)OC1C2O (stereo not drawn): 104 % of control
O=C(NCCc1c[nH]c2ccccc12)c1cccnc1: 100 % of control

Asked: So what's the measured T/C for this one? Cc1nc(N)ncc1CCC1OCCO1
Given back: 109 % of control

* * *

# Tested on: BDF1 mice, P388 leukemia ip, median survival T/C
# PROTOCOL SUMMARY: NCI In Vivo Anticancer Drug Screen. Data for tumor model P388 Leukemia (intraperitoneal) in B6D2F1 (BDF1) mice
# RECORDED CONDITIONS: endpoint: median survival time; dose: 400.0 mg/kg/injection; schedule: Q01DX009 (ip); vehicle: saline with Tween-80; higher = longer survival
Toxic doses and inconclusive results are not listed.
Measured T/C, listed per entry for reference.

Example entries begin here.
c1ccc(C(=NCCN=C(c2ccccc2)c2ccccc2)c2ccccc2)cc1: 112 % of control
COC(=O)CCSCCC(=O)OC: 100 % of control
O=C(Oc1ccc([N+](=O)[O-])cc1)c1ccc2ccccc2n1: 95 % of control
CN(C)c1ccc2cc(S(=O)(=O)O)cc(O)c2c1: 91 % of control
CCCCCCC(=O)/C=C/c1ccc(N(C)C)cc1: 93 % of control
COc1ccc(NC2=CC(C)(C(=O)O)OC2=O)cc1 (stereo not drawn): 108 % of control

Asked: So what T/C did ClC1=C(Br)C(Br)(Br)C(=C(Br)Br)C1(Br)Br get with BDF1 mice, P388 leukemia ip, median survival T/C?
Given back: 104 % of control

Asked: I'm curious: which T/C was measured for CC1(C)CC(=O)C=C(OCCc2ccccc2)C1 tested on BDF1 mice, P388 leukemia ip, median survival T/C?
Given back: 118 % of control

Asked: Provide value of T/C for this record tested with BDF1 mice, P388 leukemia ip, median survival T/C: OC1(CSc2ccccc2)CCCCC1
Given back: 122 % of control

Asked: What measured T/C is associated with CC(C)COC(=O)c1cc(O)c(O)c(O)c1 on BDF1 mice, P388 leukemia ip, median survival T/C?
Given back: 103 % of control

Asked: BDF1 mice, P388 leukemia ip, median survival T/C / T/C / COC(=O)C(CSCSC)NC(=O)/C=C/c1ccccc1C (stereo not drawn) : value?
Given back: 114 % of control

Asked: What T/C appears in the records for this molecule with BDF1 mice, P388 leukemia ip, median survival T/C? CCOC(=O)C(=O)C1CCCC1=O (stereo not drawn)
Given back: 92 % of control

Asked: Field: T/C (BDF1 mice, P388 leukemia ip, median survival T/C). Entry: CN(C)CCC(=O)O
Given back: 90 % of control

* * *

# Test system: BDF1 mice, P388 leukemia ip, median survival T/C
# PROTOCOL SUMMARY: NCI In Vivo Anticancer Drug Screen. Data for tumor model P388 Leukemia (intraperitoneal) in B6D2F1 (BDF1) mice
# RECORDED CONDITIONS: endpoint: median survival time; dose: 1.0 mg/kg/injection; schedule: Q01DX009 (ip); vehicle: saline
# Procedure: The antitumor activity of compounds was measured in mice bearing transplantable tumors. Survival or tumor size were measured and the results are expressed as the measurement made in the treated group (T) divided by the measurement made in the vehicle treated control group (C). The tumor model used in this assay is P388 Leukemia (intraperitoneal) in B6D2F1 (BDF1) mice
Toxic doses and inconclusive results are not listed. The calls were made as follows: active = survival T/C of 150% or more; inactive = T/C below 125% in these data.
Outcomes you can answer with include only these: yes (1) (active), no (0) (inactive)

Previously resolved entries follow.
CC(=O)O[C@H]1C(=O)O[C@@H]2C[C@H]3C(C)=CC(=O)[C@@H](O)[C@]3(C)[C@H]3[C@@]4(O)OC[C@]32[C@@H]1[C@@H](C)[C@H]4O: no (0)
CC[C@@]1(O)C[C@H](OC2CC(N(C)C)C(OC3CC(O)C(OC4CCC(=O)C(C)O4)C(C)O3)C(C)O2)c2c(cc3c(c2O)C(=O)c2c(O)ccc(O)c2C3=O)[C@H]1C(=O)OC (stereo not given in full): yes (1)
COC1=C(N2CC2)C(=O)C(OC)=C(N2CC2)C1=O: yes (1)
O=C1C(N2CCN(CCO)CC2)=C(N2CC2)C(=O)C(N2CCN(CCO)CC2)=C1N1CC1: yes (1)

Asked: Name the outcome recorded for c1ccc([I+]c2ccccc2)cc1 in the assay.
Given back: no (0)
